In this section we review reported pIC50 values for a set of compounds.
- procedure.text: Inhibition of TNFalpha-induced NF-kappaB activation in human HIV-1-LTR-luc 5.1 cells treated 30 mins before TNFalpha challenge measured after 6 hrs
pIC50: −log10 of the molar value.

{"columns": ["compound", "relation.qualifier", "pIC50"],
 "data": [
  ["CC(C)=CCC[C@](C)(O[C@@H]1O[C@H](C)[C@H](O)[C@H](O)[C@H]1O)[C@@H]1CC=C(C)CC1 (relative stereo)", "=", 3.96],
  ["CC(C)=CCC[C@](C)(O[C@@H]1O[C@H](C)[C@H](O)[C@H](OC(=O)C=C(C)C)[C@H]1O)[C@@H]1CC=C(C)CC1 (relative stereo)", "=", 4.22],
  ["CC(C)=CCC[C@](C)(O)[C@@H]1CC=C(C)CC1 (relative stereo) [LEVOMENOL]", "<", 3.66]
]}
